meta.source: patent US20030139352A1

System under test: human PGP (P-glycoprotein) (Homo sapiens, UniProt P08183)
Sequence (P08183 whole entry): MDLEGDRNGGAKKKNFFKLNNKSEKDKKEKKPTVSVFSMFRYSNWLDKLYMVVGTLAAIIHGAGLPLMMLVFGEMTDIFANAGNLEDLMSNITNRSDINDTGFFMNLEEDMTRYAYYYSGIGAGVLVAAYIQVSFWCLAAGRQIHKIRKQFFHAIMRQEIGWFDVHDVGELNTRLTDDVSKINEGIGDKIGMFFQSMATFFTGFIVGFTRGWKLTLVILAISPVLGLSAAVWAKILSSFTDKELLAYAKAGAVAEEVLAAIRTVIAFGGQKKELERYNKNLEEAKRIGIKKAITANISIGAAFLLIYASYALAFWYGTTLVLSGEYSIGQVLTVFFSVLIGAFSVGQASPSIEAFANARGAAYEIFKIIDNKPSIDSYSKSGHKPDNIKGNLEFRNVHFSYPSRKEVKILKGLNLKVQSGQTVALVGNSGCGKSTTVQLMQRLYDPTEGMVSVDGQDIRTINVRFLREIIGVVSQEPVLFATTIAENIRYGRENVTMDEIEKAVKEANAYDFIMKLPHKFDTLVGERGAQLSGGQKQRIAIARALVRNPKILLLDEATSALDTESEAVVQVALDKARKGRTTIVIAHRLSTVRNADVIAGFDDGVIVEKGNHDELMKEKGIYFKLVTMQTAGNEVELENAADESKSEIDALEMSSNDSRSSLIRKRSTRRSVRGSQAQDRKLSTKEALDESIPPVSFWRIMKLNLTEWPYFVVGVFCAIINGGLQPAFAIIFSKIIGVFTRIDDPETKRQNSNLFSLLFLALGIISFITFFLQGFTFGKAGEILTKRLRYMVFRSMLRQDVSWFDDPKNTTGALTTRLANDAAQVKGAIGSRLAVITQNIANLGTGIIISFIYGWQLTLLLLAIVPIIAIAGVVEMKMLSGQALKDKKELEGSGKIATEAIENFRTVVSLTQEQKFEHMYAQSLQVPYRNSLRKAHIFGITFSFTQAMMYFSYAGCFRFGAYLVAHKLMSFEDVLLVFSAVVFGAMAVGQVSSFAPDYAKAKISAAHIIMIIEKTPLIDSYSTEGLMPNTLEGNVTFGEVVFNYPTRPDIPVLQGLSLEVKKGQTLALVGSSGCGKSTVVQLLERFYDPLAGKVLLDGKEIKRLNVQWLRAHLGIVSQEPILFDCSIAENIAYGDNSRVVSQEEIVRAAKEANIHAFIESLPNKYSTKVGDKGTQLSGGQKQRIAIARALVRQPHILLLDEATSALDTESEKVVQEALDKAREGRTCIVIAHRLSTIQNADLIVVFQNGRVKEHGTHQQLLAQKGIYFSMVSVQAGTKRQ
Procedure summary: Inhibition of human PGP-mediated [3H]-digoxin transport in 15B-J (LLC-PK1 expressing human PGP) monolayers
Condition notes: human, pH 7.2, Ketoconazole Normalized % Inhibition of Digoxin Transport, 0.003 μM test substance; normalized to 25 μM ketoconazole
Measured endpoint: inhibition at 90 min, 0.003 μM (%)
Report the figure in % without appending any unit label.

### Prompt Could you share which inhibition at 90 min, 0.003 μM value was measured for C=C1CC[C@@]2(O)[C@H]3Cc4ccc(O)c5c4[C@@]2(CCN3CC2CC2)[C@H]1O5 ?
### Response 7.4

###

System under test: human PGP (P-glycoprotein) (Homo sapiens)
Procedure summary: Inhibition of human PGP-mediated [3H]-digoxin transport in 15B-J (LLC-PK1 expressing human PGP) monolayers
Condition notes: human, pH 7.2, Ketoconazole Normalized % Inhibition of Digoxin Transport, 10 μM test substance; normalized to 25 μM ketoconazole
Measured endpoint: inhibition at 90 min, 10 μM (%)
Report the figure in % without appending any unit label.

[[record]]
compound_smiles = "C=CCN1CC[C@]23c4c5ccc(O)c4O[C@H]2C(=O)CC[C@@]3(O)[C@H]1C5"
observed_measurement = 0.4


Pending compound:
### Prompt Could you share which inhibition at 90 min, 10 μM value was measured for C=C1CC[C@@]2(O)[C@H]3Cc4ccc(O)c5c4[C@@]2(CCN3CC2CC2)[C@H]1O5 ?
### Response 19

###

System under test: human PGP (P-glycoprotein) (Homo sapiens, UniProt P08183)
Procedure summary: Inhibition of human PGP-mediated [3H]-digoxin transport in 15B-J (LLC-PK1 expressing human PGP) monolayers
Condition notes: human, pH 7.2, % Inhibition of Digoxin Transport, 3.0 μM test substance; 5 μM [3H]-digoxin; 90 min
Measured endpoint: inhibition at 90 min, 3 μM (%)
Report the figure in % without appending any unit label.

### Prompt Could you share which inhibition at 90 min, 3 μM value was measured for C=C1CC[C@@]2(O)[C@H]3Cc4ccc(O)c5c4[C@@]2(CCN3CC2CC2)[C@H]1O5 ?
### Response 10

###

System under test: UniProt:P08183
Procedure summary: Inhibition of human PGP-mediated [3H]-digoxin transport in 15B-J (LLC-PK1 expressing human PGP) monolayers
Condition notes: human, pH 7.2, % Inhibition of Digoxin Transport, 0.01 μM test substance; 5 μM [3H]-digoxin; 90 min
Measured endpoint: inhibition at 90 min, 0.01 μM

### Prompt Could you share which inhibition at 90 min, 0.01 μM value was measured for C=C1CC[C@@]2(O)[C@H]3Cc4ccc(O)c5c4[C@@]2(CCN3CC2CC2)[C@H]1O5 ?
### Response 3.9%

###

System under test: human PGP (P-glycoprotein) (Homo sapiens, UniProt P08183)
Procedure summary: Inhibition of human PGP-mediated [3H]-digoxin transport in 15B-J (LLC-PK1 expressing human PGP) monolayers
Condition notes: human, pH 7.2, % Inhibition of Digoxin Transport, 30 μM test substance; 5 μM [3H]-digoxin; 90 min
Measured endpoint: inhibition at 90 min, 30 μM (%)
Report the figure in % without appending any unit label.

### Prompt Could you share which inhibition at 90 min, 30 μM value was measured for C=C1CC[C@@]2(O)[C@H]3Cc4ccc(O)c5c4[C@@]2(CCN3CC2CC2)[C@H]1O5 ?
### Response 35
